Test system: Colon cancer organoid
RUN DESCRIPTION: Optimized Dual-Glo assay to identify co-culture induced drug vulnerabilities using donated chemical probes and chemogenomics kinase set in O06 CRC organoid and F06 CAF mono and co-culture. […] Cell viability is reported both mono and co-culture models.
Assay type: functional, Homo sapiens
Set-up: dose or concentration left out as unconfirmed
CONDITION NOTES: Culture type Mono-Culture; Transduced with Renilla-dsRed lentivirus
Listing: Cell Viability of selected compounds
Give a bare numeral; the unit % is implied.

Which Cell Viability reading was recorded for the compound Cc1cc(=O)n(C)c2cc(N3C(=O)CC[C@H](NS(=O)(=O)CC(C)C)[C@H]3c3ccc(Cl)cc3)ccc12 ?
116.926

Which Cell Viability reading was recorded for the compound CNCCN1CCC(c2cc(CN(C)C(=O)c3cccc(Oc4ccccc4)c3)ccn2)CC1 ?
135.689

Which Cell Viability reading was recorded for the compound Cc1c(Nc2ccc(S(=O)(=O)N3CCN(C)CC3)cc2F)nc2ccc(-c3cnn(C4CC4)c3)cn2c1=O ?
100.536

Which Cell Viability reading was recorded for the compound Cn1cnc2c(F)c(Nc3ccc(Br)cc3Cl)c(C(=O)NOCCO)cc21 ?
90.0191

Which Cell Viability reading was recorded for the compound Cc1c(C(=O)Nc2ccc(Oc3ccnc4[nH]cc(-c5ccccc5)c34)c(F)c2)c(=O)n(-c2ccc(F)cc2)n1C ?
39.3734

Which Cell Viability reading was recorded for the compound Cl.O=C(O)c1cc(-c2ccc(C3CCNCC3)cc2)c2ccc(-c3ccc(C(F)(F)F)cc3)cc2c1 ?
93.2112

Which Cell Viability reading was recorded for the compound O=C1CCc2cc(Nc3cc(OC4CCOCC4)c([N+](=O)[O-])cc3Cl)ccc2N1 ?
106.249

Which Cell Viability reading was recorded for the compound CCOC(=O)CCNc1cc(N2CCc3ccccc3CC2)nc(-c2cccnc2)n1 ?
111.34

Which Cell Viability reading was recorded for the compound COc1c(OCCCN2CCOCC2)ccc2c1N=C(NC(=O)c1cnc(N)nc1)N1CCN=C21 ?
24.3347

Which Cell Viability reading was recorded for the compound Cc1nccc(COC(=O)N2C[C@@H]3[C@@H](CNC(=O)c4ccc5[nH]nnc5c4)[C@@H]3C2)n1 ?
74.0867

Which Cell Viability reading was recorded for the compound CN(C)C(=O)/C(C#N)=C/c1ccc(-c2nc3cnc4[nH]ccc4c3n2C2CCCCC2)o1 ?
96.6584

The reported numbers originate from ChEMBL document CHEMBL5674860.
